- System: toxicity, lethal dose
- PROCEDURE_SUMMARY: Toxicity / lethal dose noted with general anesthetic activity comparison
- Format: in vivo
- CONDITION_NOTES: same dosage = 300 mg/kg
ENDPOINT_LABEL: toxicity

# get_value(readout= toxicity, system= toxicity, lethal dose) for NC(=O)C(O)(c1ccccc1)C(F)(F)Cl (stereo not shown)
very toxic

# get_value(readout= toxicity, system= toxicity, lethal dose) for NC(=O)C(O)(c1ccc(Cl)cc1)C(F)(F)F (racemic)
toxic at the same dosage

# get_value(readout= toxicity, system= toxicity, lethal dose) for NC(=O)C(O)(c1ccc(F)cc1)C(F)(F)F (stereo not shown)
toxic at the same dosage

# get_value(readout= toxicity, system= toxicity, lethal dose) for NC(=O)C(O)(c1cccc(F)c1)C(F)(F)F (racemic)
very toxic
